- testSummary: Nuclear factor erythroid 2-related factor 2/antioxidant responsive element (Nrf2/ARE) small molecule agonists: luciferase reporter gene qHTS assay in human keratinocytes (AID 1919969); further: nearly all actives have a fitted effect of over 35% in size
- conditionSet: KeratinoSens HaCaT ARE-luciferase, luminescence, 24 h; series mostly up to 92.4 µM
- Excerpt: National Center for Advancing Translational Sciences [NCATS] Division of Preclinical Innovation [DPI] U.S. Environmental Protection Agency [EPA] National Institutes of Environmental Health Sciences [NIEHS] National Toxicology Program [NTP] […] Oxidative stress has been implicated in the pathogenesis of a variety of diseases ranging from cancer to neurodegeneration. […] The activation of the report gene under culture conditions can be detected by ONE-Glo Luciferase Assay System (Promega, Madison, WI). […]
Results filed as inconclusive are left out. The source made the active and inactive calls. The call rests on the fitted dose curve.
Assign a class; possible classes are true for active, false for inactive

# compound, discreteLabel
measured = [
    ("C/C=C(\\C)C(=O)OCCc1ccccc1", "false"),
    ("COc1ccc(-n2nc(C(F)F)cc2-c2ccc(S(C)=O)cc2)cc1 (stereo not drawn)", "false"),
    ("C[C@H](CN1CCCC1)C(=O)c1ccc(C(F)(F)F)cc1", "false"),
    ("CCCCCCC1CCCC(=O)O1 (stereo not drawn)", "false"),
    ("CC[N+](CC)(CCNC(=O)C(=O)NCC[N+](CC)(CC)Cc1ccccc1Cl)Cc1ccccc1Cl", "false"),
    ("CC(=O)Nc1ccc(C)cc1C", "false"),
]

Which outcome did this test record for the compound `Cc1c(Cn2ccnc2)c2ccccc2n1CCC(=O)O` ? false

Assay result, entry `O=C(O)CCC(=O)OC[C@@H](NC(=O)C(Cl)Cl)[C@H](O)c1ccc([N+](=O)[O-])cc1` — outcome? false

Hello, I am checking results. What call was entered for `Nc1nc(-c2ccc([N+](=O)[O-])cc2)cs1` ? false

What is the recorded call for this compound in the test? `COC(=O)c1cccc(Cl)c1` false

Write down the call the test reported for this compound. Item: `COc1ccc(S(=O)(=O)N2c3ccc(Cl)cc3[C@@](O)(c3ccccc3Cl)[C@H]2C(=O)N2CCC[C@@H]2C(N)=O)cc1OC` false

# outcome recorded in this test, key = `COc1cc(NS(=O)(=O)c2ccc(N)cc2)nc(OC)n1` false

# outcome recorded in this test, key = CCCC(=O)C(CC)Sc1ccoc1C (stereo not drawn) false

// return assay outcome for `Nc1nc2c(ncn2CCC(CO)CO)c(=O)[nH]1` false

Give the logged outcome of this assay for the following compound: C=C(C)C(=O)OCC1CCCO1 (stereo not drawn) false

// return assay outcome for `CCCCC` false

For this compound, state the assay outcome: `COc1ccc(CCC(=O)c2c(O)cc(O[C@@H]3O[C@H](CO)[C@@H](O)[C@H](O)[C@H]3O[C@@H]3O[C@@H](C)[C@H](O)[C@@H](O)[C@H]3O)cc2O)cc1O` false
